measured_target: CfEcR-DEF mutant M125G (Choristoneura fumiferana, UniProt O77255, M408G)
Sequence (P28702 299-449): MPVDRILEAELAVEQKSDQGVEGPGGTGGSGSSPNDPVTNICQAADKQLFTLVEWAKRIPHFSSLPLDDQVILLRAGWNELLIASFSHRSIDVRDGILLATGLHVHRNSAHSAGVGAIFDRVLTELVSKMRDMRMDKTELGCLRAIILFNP
Sequence (O77255 entry or part of it M408G): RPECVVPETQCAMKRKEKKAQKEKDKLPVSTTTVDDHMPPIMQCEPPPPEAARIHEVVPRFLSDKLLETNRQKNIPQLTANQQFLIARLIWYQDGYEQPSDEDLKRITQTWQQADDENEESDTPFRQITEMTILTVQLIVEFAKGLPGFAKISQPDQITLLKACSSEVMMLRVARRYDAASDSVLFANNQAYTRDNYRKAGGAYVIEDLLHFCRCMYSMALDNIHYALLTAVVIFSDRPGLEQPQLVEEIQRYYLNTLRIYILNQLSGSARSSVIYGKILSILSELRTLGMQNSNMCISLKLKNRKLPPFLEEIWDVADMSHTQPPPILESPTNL
protocol_notes: GAL4-driven luciferase reporter assay in NIH3T3 cells
Here the recorded EC50 is given for each entry.
// return numeric value only (unit: µM, not printed)

Example compounds with recorded EC50:
{"columns": ["compound", "measured_target", "EC50 / µM"],
 "data": [
  ["CCc1c(C(=O)NN(C(=O)c2cc(OC)c(C)c(OC)c2)C(C=C(C)C(C)(C)C)C(C)(C)C)ccc2c1OCCO2 (stereo not drawn) [RG-115898]", "CfEcR-DEF mutant M125G (Choristoneura fumiferana, UniProt O77255, M408G)", 0.08],
  ["CCCCC(N(NC(=O)c1ccc(CC)cc1)C(=O)c1cc(C)cc(C)c1)C(C)(C)C (stereo not drawn) [RG-115840]", "CfEcR-DEF mutant M125G (Choristoneura fumiferana, UniProt O77255, M408G)", 2.97]
]}

Form: compound = CCc1c(OC)cccc1C(=O)NN(C(=O)c1cc(C)cc(C)c1)C(C)(C)C [RG-102240] ; EC50 = 14.2

* * *

measured_target: CfEcR-DEF mutant L234W (Choristoneura fumiferana, UniProt O77255, L517W)
Sequence (O77255 entry or part of it L517W): as the sequence (O77255 entry or part of it M408G) above, with G202M, L311W counted along it
Sequence (P28702 299-449, further chain): as the sequence (P28702 299-449) above
protocol_notes: GAL4-driven luciferase reporter assay in NIH3T3 cells
measure_name: EC50

{"columns": ["molecule", "measured_target", "measure_name", "observed_result"],
 "data": [
  ["CCc1c(C(=O)NN(C(=O)c2cc(OC)c(C)c(OC)c2)C(C=C(C)C(C)(C)C)C(C)(C)C)ccc2c1OCCO2 (stereo not drawn)", "CfEcR-DEF mutant L234W (Choristoneura fumiferana, UniProt O77255, L517W)", "EC50", "> 33 µM"],
  ["CCCCC(N(NC(=O)c1ccc(CC)cc1)C(=O)c1cc(C)cc(C)c1)C(C)(C)C (stereo not drawn)", "CfEcR-DEF mutant L234W (Choristoneura fumiferana, UniProt O77255, L517W)", "EC50", "> 33 µM"]
]}

Read the next record carefully.
Form: molecule = CCc1c(OC)cccc1C(=O)NN(C(=O)c1cc(C)cc(C)c1)C(C)(C)C ; EC50 = 11.5 µM

* * *

measured_target: CfEcR-DEF mutant V96W (Choristoneura fumiferana, UniProt O77255, V379W)
protocol_notes: cell-based
measure_name: EC50 (µM)
// return numeric value only (unit: µM, not printed)

{"columns": ["compound", "observed_result"],
 "data": [
  ["Cc1cc(C)cc(C(=O)N(NC(=O)c2cccc(C(C)C)c2C)C(C)(C)C)c1 [RG-102362]", 3.26]
]}

Read the next record carefully.
Form: compound = CCc1cccc(C(=O)NN(C(=O)c2cc(C)cc(C)c2)C(C)(C)C)c1C [RG-101691] ; EC50 = 3.61

* * *

Here the recorded pEC50 is given for each entry.
measured_target: CfEcR-DEF mutant L223R (Choristoneura fumiferana, UniProt O77255, L506R)
protocol_notes: GAL4-driven luciferase reporter assay in NIH3T3 cells
Friendly reminder that pEC50 comes from taking -log10 of the concentration in mol/L.

{"columns": ["compound", "observed_result"],
 "data": [
  ["CCCCC(N(NC(=O)c1ccc(CC)cc1)C(=O)c1cc(C)cc(C)c1)C(C)(C)C (stereo not drawn)", 5.70]
]}

Read the next record carefully.
Form: compound = CCc1c(OC)cccc1C(=O)NN(C(=O)c1cc(C)cc(C)c1)C(C)(C)C ; pEC50 = 5.06

* * *

measured_target: CfEcR-DEF mutant W238P (Choristoneura fumiferana, UniProt O77255, W521P)
protocol_notes: cell-based
experimental_setup: mutant W238P; read-out: EC50
measure_name: EC50

{"columns": ["compound", "measured_target", "EC50"],
 "data": [
  ["CC(C)(O)CC[C@@H](O)[C@](C)(O)[C@H]1CC[C@@]2(O)C3=CC(=O)[C@@H]4C[C@@H](O)[C@@H](O)C[C@]4(C)[C@H]3CC[C@]12C [20E, 20-hydroxyecdysone]", "CfEcR-DEF mutant W238P (Choristoneura fumiferana, UniProt O77255, W521P)", "> 33 µM"]
]}

Tested on CfEcR-DEF mutant W238P (Choristoneura fumiferana, UniProt O77255, W521P): CC(C)CC[C@@H](O)[C@](C)(O)[C@H]1CC[C@@]2(O)C3=CC(=O)[C@@H]4C[C@@H](O)[C@@H](O)C[C@]4(C)[C@H]3CC[C@]12C [PonA, ponasterone A] . Observed EC50: ~3.3 µM

* * *

Here the recorded pEC50 is given for each entry.
measured_target: CfEcR-DEF mutant V107I/Y127E/T52V (Choristoneura fumiferana, UniProt O77255, T335V/V390I/Y410E)
Sequence (P28702 299-449): as above
Sequence (O77255 entry or part of it T335V/V390I/Y410E): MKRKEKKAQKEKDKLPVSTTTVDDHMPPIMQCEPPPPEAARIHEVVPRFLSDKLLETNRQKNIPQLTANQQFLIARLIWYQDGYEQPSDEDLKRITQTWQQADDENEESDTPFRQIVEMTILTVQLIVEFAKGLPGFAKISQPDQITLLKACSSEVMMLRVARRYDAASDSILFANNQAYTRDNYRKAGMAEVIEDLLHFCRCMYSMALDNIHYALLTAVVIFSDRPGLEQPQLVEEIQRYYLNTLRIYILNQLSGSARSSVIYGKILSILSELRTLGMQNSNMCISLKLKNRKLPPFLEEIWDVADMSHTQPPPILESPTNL
protocol_notes: GAL4-driven luciferase reporter assay in NIH3T3 cells
Assay type: cell-based
experimental_setup: mutant V107I/Y127E/T52V; read-out: EC50
pEC50: −log10 of the molar value.

{"columns": ["molecule", "pEC50"],
 "data": [
  ["CC(C)CC[C@@H](O)[C@](C)(O)[C@H]1CC[C@@]2(O)C3=CC(=O)[C@@H]4C[C@@H](O)[C@@H](O)C[C@]4(C)[C@H]3CC[C@]12C [PonA, ponasterone A]", "~6.00"]
]}

Read the next record carefully.
Form: molecule = CC(C)(O)CC[C@@H](O)[C@](C)(O)[C@H]1CC[C@@]2(O)C3=CC(=O)[C@@H]4C[C@@H](O)[C@@H](O)C[C@]4(C)[C@H]3CC[C@]12C [20E, 20-hydroxyecdysone] ; pEC50 = < 4.48

* * *

measured_target: CfEcR-DEF mutant W238M (Choristoneura fumiferana, UniProt O77255, W521M)
protocol_notes: GAL4-driven luciferase reporter assay in NIH3T3 cells
Here the recorded EC50 is given for each entry.
// return numeric value only (unit: µM, not printed)

{"columns": ["compound", "readout_unit", "EC50"],
 "data": [
  ["CCCCC(N(NC(=O)c1ccc(CC)cc1)C(=O)c1cc(C)cc(C)c1)C(C)(C)C (stereo not drawn)", "µM", 2]
]}

Read the next record carefully.
Form: compound = CCc1c(OC)cccc1C(=O)NN(C(=O)c1cc(C)cc(C)c1)C(C)(C)C ; EC50 = 10.5

* * *

measured_target: CfEcR-DEF mutant V107I/Y127E/T52V (Choristoneura fumiferana, UniProt O77255, T335V/V390I/Y410E)
protocol_notes: GAL4-driven luciferase reporter assay in NIH3T3 cells
Type: cell-based
Description: This construct was prepared in the same way as in switch 1.1 above except wild-type CfEcR-DEF was replaced with mutant CfEcR-DEF comprising a ligand binding domain comprising a substitution mutation selected from Table 1 below. […] Reporter Assays: Cells were harvested 40 hours after adding ligands. […] Luciferase activity was measured using Dual-Luciferase reporter assay system from Promega Corporation following the manufacturer's instructions. […]
Here the recorded EC50 is given for each entry.
// return numeric value only (unit: nM, not printed)

{"columns": ["compound", "readout_unit", "EC50"],
 "data": [
  ["CCc1c(OC)cccc1C(=O)NN(C(=O)c1cc(C)cc(C)c1)C(C)(C)C [RG-102240]", "nM", 60]
]}

Read the next record carefully.
Form: compound = CCc1cccc(C(=O)NN(C(=O)c2cc(C)cc(C)c2)C(C)(C)C)c1C [RG-101691] ; EC50 = 20

* * *

Here the recorded EC50 is given for each entry.
measured_target: CfEcR-DEF mutant R95W (Choristoneura fumiferana, UniProt O77255, R378W)
Sequence (O77255 entry or part of it R378W): as the sequence (O77255 entry or part of it T335V/V390I/Y410E) above, with V117T, R160W, I172V, E192Y counted along it
Sequence (P28702 299-449, further chain): as the sequence (P28702 299-449) above
protocol_notes: cell-based

Form: molecule = CCc1c(OC)cccc1C(=O)NN(C(=O)c1cc(C)cc(C)c1)C(C)(C)C ; EC50 = ~7 µM

Form: molecule = CCc1cccc(C(=O)NN(C(=O)c2cc(C)cc(C)c2)C(C)(C)C)c1C ; EC50 = ~10 µM

Form: molecule = Cc1cc(C)cc(C(=O)N(NC(=O)c2cccc(C(C)C)c2C)C(C)(C)C)c1 ; EC50 = ~8 µM

* * *

measured_target: CfEcR-DEF mutant F109W (Choristoneura fumiferana, UniProt O77255, F392W)
Sequence (O77255 entry or part of it F392W, one chain of several): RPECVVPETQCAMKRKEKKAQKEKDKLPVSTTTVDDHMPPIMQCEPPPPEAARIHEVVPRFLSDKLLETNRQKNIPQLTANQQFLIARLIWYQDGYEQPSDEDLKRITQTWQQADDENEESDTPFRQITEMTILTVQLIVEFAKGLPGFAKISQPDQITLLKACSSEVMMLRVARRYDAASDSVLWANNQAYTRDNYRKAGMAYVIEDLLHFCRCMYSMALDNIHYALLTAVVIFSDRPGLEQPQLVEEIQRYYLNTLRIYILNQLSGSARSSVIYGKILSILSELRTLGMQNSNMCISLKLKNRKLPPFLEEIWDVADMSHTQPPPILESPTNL
protocol_notes: cell-based
experimental_setup: mutant F109W; read-out: EC50
measure_name: pEC50
Friendly reminder that pEC50 comes from taking -log10 of the concentration in mol/L.

Tested on CfEcR-DEF mutant F109W (Choristoneura fumiferana, UniProt O77255, F392W): CC(C)CC[C@@H](O)[C@](C)(O)[C@H]1CC[C@@]2(O)C3=CC(=O)[C@@H]4C[C@@H](O)[C@@H](O)C[C@]4(C)[C@H]3CC[C@]12C . Observed pEC50: 5.39

* * *

Here the recorded pEC50 is given for each entry.
measured_target: CfEcR-DEF mutant F109N (Choristoneura fumiferana, UniProt O77255, F392N)
Sequence (O77255 entry or part of it F392N, one chain of several): as the sequence (O77255 entry or part of it F392W, one chain of several) above, with W186N counted along it
protocol_notes: cell-based
Friendly reminder that pEC50 comes from taking -log10 of the concentration in mol/L.

{"columns": ["molecule", "measured_target", "pEC50"],
 "data": [
  ["CCc1c(OC)cccc1C(=O)NN(C(=O)c1cc(C)cc(C)c1)C(C)(C)C [RG-102240]", "CfEcR-DEF mutant F109N (Choristoneura fumiferana, UniProt O77255, F392N)", 5.57]
]}

Form: molecule = CCc1cccc(C(=O)NN(C(=O)c2cc(C)cc(C)c2)C(C)(C)C)c1C [RG-101691] ; pEC50 = 5.40

Form: molecule = Cc1cc(C)cc(C(=O)N(NC(=O)c2cccc(C(C)C)c2C)C(C)(C)C)c1 [RG-102362] ; pEC50 = 5.73
